meta.source: paper PMC8957989

target: HaxyOBP12 (Harmonia axyridis, UniProt A0A8K1AMY0); assay: Competitive fluorescence binding assay (bis-ANS probe); conditions: recombinant protein and bis-ANS at 2 μM, Tris-HCl 50 mM pH 7.4
Sequence (A0A8K1AMY0 entry or part of it): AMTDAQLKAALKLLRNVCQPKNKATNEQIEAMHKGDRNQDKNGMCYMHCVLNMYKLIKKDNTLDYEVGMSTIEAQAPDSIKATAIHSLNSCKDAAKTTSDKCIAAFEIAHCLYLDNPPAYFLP
READOUT LABEL: pIC50
In plain terms, pIC50 is the concentration in mol/L turned into minus its base-10 logarithm.

Request: pIC50, test system HaxyOBP12 (Harmonia axyridis, UniProt A0A8K1AMY0), entry COc1ccc(C=O)cc1
4.59

Try this compound next: CC(=O)/C=C/C1=C(C)CCCC1(C)C
4.62

* * *

molecular target: HaxyOBP5 (Harmonia axyridis, UniProt A0A8J9RUK3); assay: Competitive fluorescence binding assay (bis-ANS probe); conditions: recombinant protein and bis-ANS at 2 μM, Tris-HCl 50 mM pH 7.4; read-out: HaxyOBP5 IC50
Sequence (A0A8J9RUK3 entry or part of it): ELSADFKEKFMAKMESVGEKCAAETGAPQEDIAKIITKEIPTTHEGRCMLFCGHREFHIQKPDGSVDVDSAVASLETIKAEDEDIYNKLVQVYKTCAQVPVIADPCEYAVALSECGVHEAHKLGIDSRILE
READOUT LABEL: pIC50
In plain terms, pIC50 is the concentration in mol/L turned into minus its base-10 logarithm.

Request: pIC50, test system HaxyOBP5 (Harmonia axyridis, UniProt A0A8J9RUK3), entry COC(=O)c1ccccc1O [Methyl salicylate]
4.58
